# Protocol: Caspase-3/7 induction in CHO-K1 cells by small molecules, qHTS assay (AID 1346980); further: nearly all actives have a fitted effect of over 15% in size
# Setup conditions: CHO-K1 caspase-3/7 induction, Caspase-Glo luminescence, 17 h; series mostly up to 92.4 µM
# Text: National Center for Advancing Translational Sciences [NCATS] NIH Chemical Genomics Center [NCGC] U.S. Environmental Protection Agency [EPA] National Institutes of Environmental Health Sciences [NIEHS] National Toxicology Program [NTP] Apoptosis is a process of programmed cell death and plays a central role in the development of multicellular organisms. […]
Activity calls are given as the source filed them. The call rests on the fitted dose curve; in most records, active means well fitted activation curve with a large enough effect in the repeat runs; inconclusive means weak or mixed curves; inactive means flat fitted curve, though single readings scatter.
Choose the fitting class; nothing outside true (1) (active), false (0) (inactive) is accepted.

For orientation, consider the following solved cases.
[[record]]
compound = "[O-][Cl+3]([O-])([O-])O"
class_label = "false (0)"

[[record]]
compound = "OCC(Br)CBr (stereo unspecified)"
class_label = "false (0)"

[[record]]
compound = "NC(=O)C(Cl)Cl"
class_label = "false (0)"

[[record]]
compound = "CC(Cc1ccc(O)cc1)NCC(O)c1cc(O)cc(O)c1 (stereo unspecified)"
class_label = "false (0)"

[[record]]
compound = "CNC(=O)Oc1cc(C)cc(C(C)C)c1"
class_label = "false (0)"


Request: Returns: the outcome recorded for CCCCC(CC)COC(=O)OOC(C)(C)C (stereo unspecified) in this assay.
Result: false (0)

Request: Dear colleague, could you share the recorded outcome for `ClC1=C(Cl)[C@]2(Cl)[C@@H]3[C@H]4C[C@H]([C@@H]5O[C@H]45)[C@@H]3[C@@]1(Cl)C2(Cl)Cl` when you have a moment?
Result: false (0)

Request: Give the logged outcome of this assay for the following compound: CCC(C)c1cccc(C(C)CC)c1O (stereo unspecified)
Result: false (0)

Request: Can you look up the reported call for `O.O.O.O.O.O.O.O=S(=O)([O-])[O-].[Co+2]` for me?
Result: false (0)

Request: Would you mind telling me which call this test gave `CO/N=C(\C(=O)OC)c1ccccc1CO/N=C(\C)c1cccc(C(F)(F)F)c1` ?
Result: false (0)

Request: Returns: the outcome recorded for CCC(C)Nc1c([N+](=O)[O-])cc(C(C)(C)C)cc1[N+](=O)[O-] (stereo unspecified) in this assay.
Result: false (0)

Request: Field: outcome | Entry: `C#CCO`
Result: false (0)

Request: Assay result, entry O=S1OCC2C(CO1)C1(Cl)C(Cl)=C(Cl)C2(Cl)C1(Cl)Cl (stereo unspecified) — outcome?
Result: false (0)

Request: In this assay, the call recorded for `CC[C@H](C)[C@H]1O[C@]2(C=C[C@@H]1C)C[C@@H]1C[C@@H](C/C=C(\C)[C@@H](O[C@H]3C[C@H](OC)[C@@H](O[C@H]4C[C@H](OC)[C@@H](NC)[C@H](C)O4)[C@H](C)O3)[C@@H](C)/C=C/C=C3\CO[C@@H]4[C@H](O)C(C)=C[C@@H](C(=O)O1)[C@]34O)O2` was what?
Result: true (1)

Request: I would be grateful if you could indicate the recorded call for `CNN` .
Result: false (0)

Request: What was the test verdict on `CCc1cccc(C)c1N(C(=O)CCl)[C@@H](C)COC` ?
Result: false (0)
